From: the supplement of paper PMC8285479

Measured normalised cell viability of individual entries
# Test system: NCI-H1944;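 further: CTB read-out in 384-well plates, triplicate wells, NPI normalised per plate against 1 µM phenylarsine oxide (0) and 0.1% DMSO (1) controls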
# assay-explanation: normalised cell viability (NPI; 0 = phenylarsine oxide control, 1 = DMSO control) (fraction of DMSO control); NCI-H1944 is a non-small cell lung cancer line; higher = more viable cells (less compound toxicity)
# setup-conditions: glucocorticoid arm: vehicle; compound 5 µM; 6 days
The full ranking holds about 1,900 compounds; the median of “normalised cell viability (NPI; 0 = phenylarsine oxide control, 1 = DMSO control)” is about 1, and the lowest 2% start at about 0.039. The list comes from a sample in which the lowest values are over-represented; it also holds close analogues and randomly drawn compounds.
measurement-label: normalised cell viability

{"columns": ["compound", "meas-value"],
 "data": [
  ["Cc1ccc(S(=O)(=O)N[C@@H](Cc2ccccc2)C(=O)CCl)cc1", 0.691],
  ["Nc1ncn([C@H]2C[C@H](O)[C@@H](CO)O2)c(=O)n1 [5-Aza-2'-deoxycytidine; Decitabine]", 0.22],
  ["CC(C)[C@H](NC(=O)OCc1ccccc1)C(=O)N[C@H](C=O)Cc1ccccc1", 1],
  ["O=C(N[C@@H](Cc1ccccc1)C(=O)CCl)OCc1ccccc1", 0.149]
]}
